target: Ubiquitin carboxyl-terminal hydrolase 30 (Homo sapiens) (UniProt Q70CQ3); assay: inhibitors of human USP30 deubiquitinase (AID 1645860); conditions: purified USP30, Ub-rhodamine cleavage fluorescence; at 25 µM
Sequence (Q70CQ3 whole entry, looked up): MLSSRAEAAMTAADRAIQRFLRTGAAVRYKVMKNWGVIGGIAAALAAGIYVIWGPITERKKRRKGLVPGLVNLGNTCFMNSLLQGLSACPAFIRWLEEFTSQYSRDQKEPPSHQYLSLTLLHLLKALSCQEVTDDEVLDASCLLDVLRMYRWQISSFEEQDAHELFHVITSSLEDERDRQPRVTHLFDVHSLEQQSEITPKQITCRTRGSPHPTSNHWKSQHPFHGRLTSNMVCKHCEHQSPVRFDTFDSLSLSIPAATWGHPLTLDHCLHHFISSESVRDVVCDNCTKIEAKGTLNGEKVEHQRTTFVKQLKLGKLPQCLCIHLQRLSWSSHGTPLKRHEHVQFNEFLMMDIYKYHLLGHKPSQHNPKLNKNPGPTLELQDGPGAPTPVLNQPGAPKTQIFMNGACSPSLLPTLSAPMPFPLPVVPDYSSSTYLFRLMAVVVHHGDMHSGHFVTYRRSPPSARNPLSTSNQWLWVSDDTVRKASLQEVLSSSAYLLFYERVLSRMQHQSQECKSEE
Out of some 47,000 compounds screened, about 2,500 (5.3%) were called active. Cut-off read from the data, not from the text of the source: active = inhibition above about 30%; inactive = the rest. This is one part of a sample in which actives are shown more often than they occur.
Result category, one only: active, inactive

Task: What outcome does the record of this test show for CC1(C)OC(=O)[C@@]2(C)N[C@]1(C)C[C@@H]2C(=O)Nc1ccc(O)cc1 ?
Result: inactive

Task: What outcome does the record of this test show for CSc1ncccc1C(=O)Nc1ccnn1C(C)c1ccncc1 (centres undefined) ?
Result: inactive

Task: What outcome does the record of this test show for CNc1nc(C2CCNCC2)nc2c1CCN(S(=O)(=O)c1ccccc1Cl)C2 ?
Result: inactive

Task: What outcome does the record of this test show for CCCCN(c1ccccc1)S(=O)(=O)c1cccc(C(=O)OCC(=O)NCc2ccc3c(c2)OCO3)c1 ?
Result: active

Task: What outcome does the record of this test show for CCn1nnc2c1C(COC)CN(C(=O)CC1=CCCCC1)C2 (centres undefined) ?
Result: inactive

Task: What outcome does the record of this test show for COc1ccc(N(CC(=O)NCc2ccco2)S(=O)(=O)c2ccccc2[N+](=O)[O-])c(OC)c1 ?
Result: inactive

Task: What outcome does the record of this test show for CN1[C@@H](CCC(=O)N2CCc3ccccc32)CNC(=O)[C@@H]2[C@H]1CCN2Cc1ncc[nH]1 ?
Result: inactive

Task: What outcome does the record of this test show for COc1ccc(CCC(=O)Nc2ccc3nc(N4CCOCC4)cc(C)c3c2)cc1 ?
Result: inactive

Task: What outcome does the record of this test show for Cc1sc2nc(C3CC3)n(C3CCN(C(=O)C(C)C)CC3)c(=O)c2c1C ?
Result: inactive
